The reported numbers originate from patent US20040132659A1.

# target: integrin receptors on the surface of MDA-MB-435 cells
# assay remarks: inhibition of binding of MDA-MB-435 cells to immobilized CN (0.1 µg/well); competitor: immobilized CN
measured attribute: IC50
Could you kindly put the unit after your number?

Challenge: Look at this binder and give its reported IC50. GRGDSP [RGD peptide GRGDSP]
Response given: 400 µM
